The measurements presented in this section are drawn from paper PMC11210122.

Tested on: pseudo-normal human embryonic liver cell line (L02)
Assay Comment: MTT assay, pseudo-normal L02 cells
Assay type: cell-based
Condition Description: L02, 100 µM, mean ± SD of three independent experiments
Text: Methods for in vitro anti-proliferative assay [Cell lines]: In the current investigation, hepatocellular carcinoma cell lines (HEPG-2), human lung carcinoma (A549) and human breast carcinoma cell line (MCF-7) and pseudo-normal human embryonic liver cellline (L02) were used for antiproliferative activity, the cell lines were obtained from NCL, Pune. […]
Here the recorded inhibition at 100 µM is given for each entry.
Kindly report the value followed by its unit.

Answered cases to consult:
[[record]]
mol_smiles = "Nc1nnc(SCC(=O)Nc2nc(-c3ccc(Br)cc3)cs2)s1"
outcome_measure = "inhibition at 100 µM"
value = "15.8%"

[[record]]
mol_smiles = "O=C(CCl)Nc1nc(-c2ccc(Cl)cc2)cs1"
outcome_measure = "inhibition at 100 µM"
value = "18.4%"

[[record]]
mol_smiles = "Nc1nnc(SCC(=O)Nc2nc(-c3ccccc3)cs2)s1"
outcome_measure = "inhibition at 100 µM"
value = "22.6%"

[[record]]
mol_smiles = "O=C(CCl)Nc1nc(-c2ccc(F)cc2)cs1"
outcome_measure = "inhibition at 100 µM"
value = "16.3%"

[[record]]
mol_smiles = "O=C(CCl)Nc1nc(-c2ccccc2)cs1"
outcome_measure = "inhibition at 100 µM"
value = "21.6%"


We next turn to a different compound, shown below.
Asked: Using the record for COc1ccc(-c2csc(NC(=O)CSc3nnc(N)s3)n2)cc1 , report its inhibition at 100 µM.
Given back: 21.8%
